target: human-type PPAR γ ligand-binding domain (Homo sapiens, UniProt P37231); construct: made in house; host or cells: Escherichia coli; assay: Competition binding with [3H]KRP-297 to 6×His-hPPARγ ligand-binding domain; settings: competition with [3H]KRP-297
Sequence (P37231 238-503 limits assumed): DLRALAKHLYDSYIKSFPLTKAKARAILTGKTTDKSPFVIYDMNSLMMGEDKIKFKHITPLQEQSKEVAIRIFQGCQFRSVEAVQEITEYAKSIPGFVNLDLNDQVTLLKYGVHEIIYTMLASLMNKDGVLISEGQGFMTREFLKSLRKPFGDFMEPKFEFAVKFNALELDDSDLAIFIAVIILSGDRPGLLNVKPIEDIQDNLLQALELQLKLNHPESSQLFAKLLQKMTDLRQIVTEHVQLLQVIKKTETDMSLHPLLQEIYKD
Quantity: Binding to PPAR γ ligand-binding domain, in words

In the examples that follow, each entry is paired with its recorded Binding to PPAR γ ligand-binding domain, in words.
| Compound smiles | Result |
| --- | --- |
| CCCCC/C=C\C/C=C\C/C=C\C/C=C\CCCC(=O)SCCNC(=O)CCNC(=O)[C@H](O)C(C)(C)COP(=O)(O)OP(=O)(O)OC[C@H]1O[C@@H](n2cnc3c(N)ncnc32)[C@H](O)[C@@H]1OP(=O)(O)O | ligand |
| CCCCC/C=C\C/C=C\CCCCCCCC(=O)SCCNC(=O)CCNC(=O)[C@H](O)C(C)(C)COP(=O)(O)OP(=O)(O)OC[C@H]1O[C@@H](n2cnc3c(N)ncnc32)[C@H](O)[C@@H]1OP(=O)(O)O | ligand |
| CCCCCCCCCCCCCC(=O)SCCNC(=O)CCNC(=O)[C@H](O)C(C)(C)COP(=O)(O)OP(=O)(O)OC[C@H]1O[C@@H](n2cnc3c(N)ncnc32)[C@H](O)[C@@H]1OP(=O)(O)O | ligand |
| CCCCCCCCCCCCCCCC(=O)SCCNC(=O)CCNC(=O)[C@H](O)C(C)(C)COP(=O)(O)OP(=O)(O)OC[C@H]1O[C@@H](n2cnc3c(N)ncnc32)[C@H](O)[C@@H]1OP(=O)(O)O | ligand |

Input line: Using the record for CCCCCCCCCCCCCCCCCC(=O)SCCNC(=O)CCNC(=O)[C@H](O)C(C)(C)COP(=O)(O)OP(=O)(O)OC[C@H]1O[C@@H](n2cnc3c(N)ncnc32)[C@H](O)[C@@H]1OP(=O)(O)O , report its Binding to PPAR γ ligand-binding domain, in words.
Output line: ligand

Input line: Quick one: Binding to PPAR γ ligand-binding domain, in words of CCCCCCCC/C=C\CCCCCCCC(=O)SCCNC(=O)CCNC(=O)[C@H](O)C(C)(C)COP(=O)(O)OP(=O)(O)OC[C@H]1O[C@@H](n2cnc3c(N)ncnc32)[C@H](O)[C@@H]1OP(=O)(O)O ?
Output line: ligand
